test: signal artefacts in PPARgamma/SRC-3 readout – biochemical, TR-FRET ratio, artefact control for PPARgamma SRC-3 recruitment agonists (AID 1048); settings: TR-FRET artefact counter-screen, PPARgamma/SRC-3 format; at 8 µM; active compounds read high
About 390 (0.39%) of roughly 99,000 compounds were called active. This excerpt belongs to a sample that is enriched for actives.
So I've got a bunch of compounds here, and I need their TR-FRET ratio values.
Answers are plain numbers.

Please review the entries below; each comes with its answer.
compound: Cc1csc(CN(C)C(=O)CC2C(=O)NCCN2CC(C)(C)C)n1 (stereo not given)
test-result: 1590

compound: CCc1cccc(CC)c1NC(=O)COc1ccccc1C(=O)c1cc(C#N)c(=O)n(C2CCCCC2)c1
test-result: 1810

compound: CCc1ccc(-n2c(SCc3cc(=O)n4cc(Br)ccc4n3)nc3[nH]ncc3c2=O)cc1
test-result: 2480

compound: Cc1cccc2nc(CSc3nc4[nH]ncc4c(=O)n3-c3cccc(Cl)c3)cc(=O)n12
test-result: 1540

Prompt: For O=c1c2sccc2nc(SCc2cc(=O)n3ccccc3n2)n1-c1ccc(Br)cc1 , what is its reported TR-FRET ratio?
Completion: 1730

* * *

test: signal artefacts in PPARgamma/SRC-3 readout – biochemical, TR-FRET ratio, artefact control for PPARgamma SRC-3 recruitment agonists (AID 1048); conditions: TR-FRET artefact counter-screen, PPARgamma/SRC-3 format; at 8 µM; active compounds read high
The campaign covered roughly 99,000 compounds. About 390 (0.39%) were called active. Only a selection was taken, and actives are over-represented in it overall.
If the reported TR-FRET ratio equals or exceeds 2000, assign Yes. If not, assign No.

As a guide, the following entries are already answered.
compound: O=C(NCc1cccs1)c1cc(-c2ccccn2)nc2ccc(Br)cc12
assigned-category: Yes
//
compound: COc1ccc(C(=O)Nc2ccc(NC(=O)C(C)C)nc2)cc1
assigned-category: No
//
compound: Cc1ccc(-c2cc(C(=O)NCc3cn(C)nc3C)c3cc(Br)ccc3n2)cc1
assigned-category: Yes
//
compound: CCN(CC)c1ccc(C(=O)N/N=C(\C)c2cccc(OC)c2)cc1
assigned-category: No

Prompt: Check the entry CCC(=O)Nc1cc(C(F)(F)F)ccc1N1CCCC1 : does TR-FRET ratio equal or exceed 2000?
Completion: No

Prompt: Check the entry NC(=O)C[C@@H]1NC(=O)CNC(=O)c2cc([N+](=O)[O-])cc(I)c2NCCC(C(N)=O)NC1=O (stereo partly specified) : does TR-FRET ratio equal or exceed 2000?
Completion: No

Prompt: Check the entry O=S1(=O)CC/C(=N\Nc2ccc(F)cc2)c2ccsc21 : does TR-FRET ratio equal or exceed 2000?
Completion: No

Prompt: Check the entry CCOC(=O)c1c(C)n(C)c2ccc(OC)c(NS(=O)(=O)CC)c12 : does TR-FRET ratio equal or exceed 2000?
Completion: No

Prompt: Check the entry CN1CCC(=NNC(=O)CN(c2cccc(Cl)c2)S(C)(=O)=O)CC1 : does TR-FRET ratio equal or exceed 2000?
Completion: No

Prompt: Check the entry COCCCNc1nc2c(-c3cccc(C(F)(F)F)c3)nnn2c2ccccc12 : does TR-FRET ratio equal or exceed 2000?
Completion: Yes

Prompt: Check the entry CCN(CC(=O)NCCc1ccccc1)S(=O)(=O)c1ccc(C)cc1 : does TR-FRET ratio equal or exceed 2000?
Completion: No

* * *

assay: signal artefacts in PPARgamma/SRC-3 readout – biochemical, TR-FRET ratio, artefact control for PPARgamma SRC-3 recruitment agonists (AID 1048); settings: TR-FRET artefact counter-screen, PPARgamma/SRC-3 format; at 8 µM; active compounds read high
About 390 (0.39%) of roughly 99,000 compounds were called active. Many of the other results were omitted from the sample, so actives are more common in it than they were.
So I've got a bunch of compounds here, and I need their TR-FRET ratio values.
Give bare numbers.

Please review the entries below; each comes with its answer.
compound: COCCN(C(=S)Nc1ccccc1OC)C1CCN(C(C)C)CC1
TR-FRET ratio: 1690
--
compound: COc1cccc(CC2(CO)CCCN(Cc3nc(-c4cccs4)oc3C)C2)c1 (stereo unspecified)
TR-FRET ratio: 1600
--
compound: COc1cc(C(=O)Nc2cc(C(F)(F)F)ccc2N2CCOCC2)ccc1O
TR-FRET ratio: 1560
--
compound: O=C(C1CCN(C2CCN(Cc3cccc4c3OCO4)CC2)CC1)N1CCOCC1
TR-FRET ratio: 1420
--
compound: CC1COc2ccccc2N1C(=O)c1cccnc1Cl (stereo unspecified)
TR-FRET ratio: 1670

Please go through the list and note TR-FRET ratio for each compound.
1. CC/C(Cc1ccccc1)=N/NC(=O)CCn1nnc2ccccc21
2. Cc1ccc(C(=O)NC(=S)NCCN2CCOCC2)cc1
3. COc1ccc(C(=O)NNc2cc(C)nc(NNC(=O)c3ccc(OC)cc3)n2)cc1
4. COc1ccc(S(=O)(=O)Nc2cccnc2)c(Cl)c1Cl

Completion:
1860
1640
1420
1690

Please go through the list and note TR-FRET ratio for each compound.
1. O=C(CC1SC(=Nc2ccccc2F)N(CCN2CCOCC2)C1=O)Nc1ccc(F)cc1F (stereo unspecified)
2. O=C(NCc1ccncc1)NC12CC3CC(CC(C3)C1)C2

Completion:
1720
1490

* * *

assay: signal artefacts in PPARgamma/SRC-3 readout – biochemical, TR-FRET ratio, artefact control for PPARgamma SRC-3 recruitment agonists (AID 1048); conditions: TR-FRET artefact counter-screen, PPARgamma/SRC-3 format; at 8 µM; active compounds read high
About 390 (0.39%) of roughly 99,000 compounds were called active. Shown is part of a subset that was picked to be rich in actives.
measure-name: TR-FRET ratio

molecule: CCOC(=O)c1c(NC(=O)CNC2CCCc3ccccc32)sc(C(N)=O)c1C (stereo not given)
TR-FRET ratio: 2120 (active)

Please go through the list and note TR-FRET ratio for each molecule.
1. O=C1CCCC(O)=C1N=Nc1ccc2ncsc2c1
2. O=C(Nc1ccc(NC(=O)c2ccco2)c(Cl)c1)c1cccc([N+](=O)[O-])c1

Completion:
1: 1660 (inactive); 2: 1700 (inactive)

Please go through the list and note TR-FRET ratio for each molecule.
1. COc1ccc(OC)c(C(=O)c2ccc(C(=O)N3CCN(Cc4csc(C)n4)CC3)cc2)c1
2. CCOC(=O)C1CCCN(C(=O)/C=C/c2ccc(OC)cc2)C1 (stereo not given)
3. Cc1ccc2[nH]c(C)c(CCNC(=O)NC3CCCCC3)c2c1
4. CN(C)c1ccc(N/C=C/C(=O)C(F)(F)F)cc1
5. CCOC(=O)c1sc(NC(=O)COc2ncnc3ccccc23)c(C(=O)OCC)c1C
6. Cc1ccc(NC(=O)NNC(=O)c2sccc2-n2cccc2)cc1
7. COc1cc(CNc2ncn[nH]2)ccc1OCc1ccccc1C
8. Cc1c(C(=O)Nc2ccccc2)sc2nc3n(c(=O)c12)CCCCC3

Completion:
["1600 (inactive)", "1570 (inactive)", "1590 (inactive)", "2070 (active)", "1650 (inactive)", "1310 (inactive)", "1650 (inactive)", "1500 (inactive)"]

Please go through the list and note TR-FRET ratio for each molecule.
1. COc1ccc(NS(=O)(=O)c2cc(NC(=O)C3CCCCC3)ccc2N2CCOCC2)cc1
2. CC(C)CNC(=O)C(=O)Nc1ccc(N(C)C)cc1

Completion:
1: 1510 (inactive); 2: 1510 (inactive)

Please go through the list and note TR-FRET ratio for each molecule.
1. CCCN(CC(=O)Nc1ccc(C(N)=O)cc1)CC(=O)Nc1ccccc1C
2. O=C(N/N=C/c1ccccn1)C12CC3CC(CC(C3)C1)C2

Completion:
1400 (inactive)
1520 (inactive)

* * *

assay: signal artefacts in PPARgamma/SRC-3 readout – biochemical, TR-FRET ratio, artefact control for PPARgamma SRC-3 recruitment agonists (AID 1048); conditions: TR-FRET artefact counter-screen, PPARgamma/SRC-3 format; at 8 µM
Screen size: about 99,000 compounds; about 390 (0.39%) were called active. No stated cut-off is given here; in the data, active means TR-FRET ratio above about 2000; inactive means the rest. What follows is part of a selection rich in actives, with near analogues and random picks from the rest.
A correct response names exactly one class from active, inactive

Prompt: Please state the recorded outcome for this compound: NC1=NC2(CCCCC2)N(c2ccc(F)cc2F)C(N)=N1
Completion: inactive

Prompt: Please state the recorded outcome for this compound: O=C(CCc1ccccc1)Nc1ccc(NC(=O)C2CCCCC2)nc1
Completion: inactive

Prompt: Please state the recorded outcome for this compound: Cc1cccc(OCc2ccc(C(=O)Nc3ccc(F)cc3)cc2)c1
Completion: inactive

Prompt: Please state the recorded outcome for this compound: CCOC(=O)C1C(c2ccc(Cl)cc2)NC(=S)NC1(O)C(F)(F)F (stereo not drawn)
Completion: inactive

Prompt: Please state the recorded outcome for this compound: COc1ccc(N2CCN(C(=O)CNS(=O)(=O)c3ccc(C)c(C)c3)CC2)cc1
Completion: inactive

Prompt: Please state the recorded outcome for this compound: CCC(C(=O)OCC(=O)Nc1ccc(C(=O)Nc2ccc(OC)cc2)cc1)c1ccccc1 (stereo not drawn)
Completion: inactive

Prompt: Please state the recorded outcome for this compound: O=C(CSc1cccc[n+]1[O-])NCCCc1ccccc1
Completion: inactive

Prompt: Please state the recorded outcome for this compound: CC(=O)Nc1ccc(NC(=O)C(C)n2c3ccccc3c3nc(=O)cc(C)n32)cc1 (stereo not drawn)
Completion: inactive

Prompt: Please state the recorded outcome for this compound: Cc1[nH]nc(SCC(=O)NCC(C)C)c1[N+](=O)[O-]
Completion: inactive
